Biological target: T1, factor VIIIa A1/A3C1C2 dimer, wild type (human, UniProt P00451 20-391; P00451 1709-2351)
T1 sequence 1: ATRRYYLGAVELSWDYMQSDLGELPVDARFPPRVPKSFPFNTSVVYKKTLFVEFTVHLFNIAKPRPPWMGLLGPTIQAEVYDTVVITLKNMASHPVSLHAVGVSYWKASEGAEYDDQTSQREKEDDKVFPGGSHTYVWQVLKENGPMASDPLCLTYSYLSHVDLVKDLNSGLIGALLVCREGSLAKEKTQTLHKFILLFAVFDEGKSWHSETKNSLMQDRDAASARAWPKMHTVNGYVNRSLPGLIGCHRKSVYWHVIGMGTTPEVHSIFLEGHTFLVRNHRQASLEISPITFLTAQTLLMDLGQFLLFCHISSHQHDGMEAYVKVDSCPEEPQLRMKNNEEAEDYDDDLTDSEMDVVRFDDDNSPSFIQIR
T1 sequence 2: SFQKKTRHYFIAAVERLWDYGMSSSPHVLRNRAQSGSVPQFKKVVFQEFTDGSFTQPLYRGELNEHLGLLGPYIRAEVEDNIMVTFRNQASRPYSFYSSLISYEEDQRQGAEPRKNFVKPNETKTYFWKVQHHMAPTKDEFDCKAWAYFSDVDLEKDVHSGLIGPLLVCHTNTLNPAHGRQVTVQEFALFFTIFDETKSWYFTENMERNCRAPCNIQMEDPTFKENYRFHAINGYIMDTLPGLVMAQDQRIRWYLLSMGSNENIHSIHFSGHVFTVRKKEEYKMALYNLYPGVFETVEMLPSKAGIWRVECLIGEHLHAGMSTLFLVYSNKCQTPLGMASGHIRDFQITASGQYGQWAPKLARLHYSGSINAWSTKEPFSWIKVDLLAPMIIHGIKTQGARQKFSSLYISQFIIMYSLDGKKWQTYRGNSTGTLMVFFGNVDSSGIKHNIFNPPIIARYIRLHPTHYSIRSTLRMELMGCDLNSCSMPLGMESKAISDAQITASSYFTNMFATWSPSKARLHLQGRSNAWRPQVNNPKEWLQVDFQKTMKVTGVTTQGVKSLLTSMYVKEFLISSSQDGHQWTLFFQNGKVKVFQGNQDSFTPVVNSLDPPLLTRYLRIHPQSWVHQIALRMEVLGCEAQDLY
Assay: cell-based or functional assay
endpointName: Factor VIIIa Decay relative to the WT value, Factor IXa absent

1) factor VIIIa A2 subunit, Asp519Val (other) SVAKKHPKTWVHYIAAEEEDWDYAPLVLAPDDRSYKSQYLNNGPQRIGRKYKKVRFMAYTDETFKTREAIQHESGILGPLLYGEVGDTLLIIFKNQASRPYNIYPHGITDVRPLYSRRLPKGVKHLKDFPILPGEIFKYKWTVTVEVGPTKSDPRCLTRYYSSFVNMERDLASGLIGPLLICYKESVDQRGNQIMSDKRNVILFSVFDENRSWYLTENIQRFLPNPAGVQLEDPEFQASNIMHSINGYVFDSLQLSVCLHEVAYWYILSIGAQTDFLSVFFSGYTFKHKMVYEDTLTLFPFSGETVFMSMENPGLWILGCHNSDFRNRGMTALLKVSSCDKNTGDYYEDSYEDISAYLLSKNNAIEPR: 0.77 relative to WT
2) factor VIIIa A2 subunit, wild type (other) SVAKKHPKTWVHYIAAEEEDWDYAPLVLAPDDRSYKSQYLNNGPQRIGRKYKKVRFMAYTDETFKTREAIQHESGILGPLLYGEVGDTLLIIFKNQASRPYNIYPHGITDVRPLYSRRLPKGVKHLKDFPILPGEIFKYKWTVTVEDGPTKSDPRCLTRYYSSFVNMERDLASGLIGPLLICYKESVDQRGNQIMSDKRNVILFSVFDENRSWYLTENIQRFLPNPAGVQLEDPEFQASNIMHSINGYVFDSLQLSVCLHEVAYWYILSIGAQTDFLSVFFSGYTFKHKMVYEDTLTLFPFSGETVFMSMENPGLWILGCHNSDFRNRGMTALLKVSSCDKNTGDYYEDSYEDISAYLLSKNNAIEPR: 1 relative to WT

Req: Query: Factor VIIIa Decay relative to the WT value, Factor IXa absent; subject: factor VIIIa A2 subunit, Asp519Ala (other) SVAKKHPKTWVHYIAAEEEDWDYAPLVLAPDDRSYKSQYLNNGPQRIGRKYKKVRFMAYTDETFKTREAIQHESGILGPLLYGEVGDTLLIIFKNQASRPYNIYPHGITDVRPLYSRRLPKGVKHLKDFPILPGEIFKYKWTVTVEAGPTKSDPRCLTRYYSSFVNMERDLASGLIGPLLICYKESVDQRGNQIMSDKRNVILFSVFDENRSWYLTENIQRFLPNPAGVQLEDPEFQASNIMHSINGYVFDSLQLSVCLHEVAYWYILSIGAQTDFLSVFFSGYTFKHKMVYEDTLTLFPFSGETVFMSMENPGLWILGCHNSDFRNRGMTALLKVSSCDKNTGDYYEDSYEDISAYLLSKNNAIEPR
Resp: 0.66 relative to WT
